Values compiled from paper PMC9490236.

- settings: PAMPA
Where a SMILES comes first, the peptide text is derived from it. [ ]: non-standard residue; d: D form. NMeF = CN[C@@H](Cc1ccccc1)C(=O)O; NMeL = CN[C@@H](CC(C)C)C(=O)O; dNMeL = CN[C@H](CC(C)C)C(=O)O; Nle = CCCC[C@H](N)C(=O)O; dNMeA = CN[C@H](C)C(=O)O
endpoint: PAMPA_Papp_Avg

- compound: "CC[C@H](C)[C@@H]1NC(=O)[C@H](Cc2ccccc2)NC(=O)[C@H]2CCCN2C(=O)[C@H]([C@@H](C)CC)NC(=O)[C@H](C(C)C)NC(=O)[C@@H](C)NC(=O)[C@H]2CCCN2C1=O (single isomer, unassigned) [Design D7.8.p2, VAL ILE DPRO PHE ILE DPRO DALA]"
  result: "4.92e-06 cm/s"
- compound: "CC[C@H](C)[C@@H]1NC(=O)[C@@H]2CCCN2C(=O)[C@H]2CCCN2C(=O)[C@@H](CC(C)C)NC(=O)[C@@H](CC(C)C)N(C)C(=O)[C@@H]2CCCN2C(=O)[C@H](Cc2ccccc2)N(C)C(=O)[C@@H](Cc2ccc(O)cc2)NC1=O [Design D8.13, PRO ILE DTYR *PHE PRO *DLEU DLEU DPRO] (cyclo(I[dY][NMeF]P[dNMeL][dL][dP]P))"
  result: "BQL"
- compound: "CC[C@@H](C)[C@H]1NC(=O)[C@H](C(C)C)NC(=O)[C@H](Cc2ccccc2)NC(=O)[C@H](C)NC(=O)[C@@H]2CCCN2C(=O)[C@H]2CCCN2C(=O)[C@H]2CCCN2C(=O)[C@H](CC(C)C)N(C)C(=O)[C@@H](C)N(C)C(=O)[C@H](C(C)C)NC1=O [Design D10.38] (cyclo(AFV[dI]V[dNMeA][NMeL][dP][dP]P))"
  result: "BQL"
- compound: "CCCC[C@@H]1NC(=O)[C@H](CC(C)C)NC(=O)[C@@H]2CCCN2C(=O)[C@H]2CCCN2C(=O)[C@@H](C)NC(=O)[C@H]2CCCN2C(=O)[C@@H](CC(C)C)NC(=O)[C@@H](C)N(C)C(=O)[C@H](CC(C)C)N(C)C(=O)[C@@H](C)N(C)C1=O [Design D10.40] (cyclo(L[Nle][dNMeA][NMeL][dNMeA][dL][dP][dA][dP]P))"
  result: "7.09E-07"
- compound: "CC[C@@H](C)[C@H]1NC(=O)[C@@H](C)NC(=O)[C@@H](CC(C)C)NC(=O)[C@@H](Cc2ccccc2)NC(=O)[C@@H]2CCCN2C(=O)[C@@H]2CCCN2C(=O)[C@@H](CC(C)C)N(C)C(=O)[C@@H](C)N(C)C(=O)[C@@H](CC(C)C)NC(=O)[C@H](CC(C)C)NC(=O)[C@@H](Cc2ccccc2)NC1=O [Design D11.18] (cyclo(L[dL][dNMeA][dNMeL]PP[dF][dL][dA][dI][dF]))"
  result: "BQL"
- compound: "CCCC[C@@H]1NC(=O)[C@@H]2CCCN2C(=O)[C@@H](C(C)C)NC(=O)[C@@H](C)N(C)C(=O)[C@@H](CC(C)C)NC(=O)[C@@H](CC(C)C)NC(=O)[C@@H]2CCCN2C(=O)[C@H]2CCCN2C1=O [Design D8.29, MET DPRO PRO DLEU DLEU *DALA DVAL PRO] (cyclo([dL][dL][dNMeA][dV]P[Nle][dP]P))"
  result: "3.60E-07"
- compound: "CC(C)C[C@@H]1NC(=O)[C@@H](C(C)C)NC(=O)[C@@H]2CCCN2C(=O)[C@H]2CCCN2C(=O)[C@H](Cc2ccccc2)NC(=O)[C@@H](C)NC(=O)[C@@H](CC(C)C)N(C)C(=O)[C@@H]2CCCN2C(=O)[C@H]2CCCN2C(=O)[C@@H](C(C)C)NC(=O)[C@@H](C)N(C)C1=O [Design D11.12] (cyclo([dNMeL][dA]F[dP]P[dV]L[dNMeA][dV][dP]P))"
  result: "BQL"
- compound: "CC(C)C[C@@H]1C(=O)N(C)[C@@H](CC(C)C)C(=O)N2CCC[C@@H]2C(=O)N[C@H](CC(C)C)C(=O)N[C@H](C)C(=O)N2CCC[C@@H]2C(=O)N2CCC[C@H]2C(=O)N[C@@H](C)C(=O)N[C@H](Cc2ccccc2)C(=O)N[C@H](CC(C)C)C(=O)N[C@@H](C(C)C)C(=O)N1C (single isomer, unassigned) [Design D11.9.p2]"
  result: "BQL"
- compound: "CCCC[C@@H]1NC(=O)[C@@H](C)N(C)C(=O)[C@@H]2CCCN2C(=O)[C@@H](CC(C)C)NC(=O)[C@H](CC(C)C)N(C)C(=O)[C@H]2CCCN2C(=O)[C@H](CC(C)C)NC(=O)[C@@H](CC(C)C)NC(=O)[C@@H](C)NC1=O [Design D9.28] (cyclo(L[dP][NMeL][dL]P[dNMeA][Nle][dA][dL]))"
  result: "1.60E-06"
- compound: "CC(C)C[C@@H]1NC(=O)[C@@H](CC(C)C)N(C)C(=O)[C@@H]2CCCN2C(=O)[C@H](CC(C)C)N(C)C(=O)[C@@H](C)NC(=O)[C@@H](CC(C)C)N(C)C(=O)[C@@H]2CCCN2C(=O)[C@@H](CC(C)C)N(C)C(=O)[C@H](CC(C)C)N(C)C(=O)[C@H](Cc2ccccc2)NC1=O [Design D10.21] (cyclo(F[NMeL][dNMeL]P[dNMeL][dA][NMeL]P[dNMeL]L))"
  result: "BQL"
- compound: "CC[C@H](C)[C@@H]1NC(=O)[C@H]2CCCN2C(=O)[C@@H](CC(C)C)N(C)C(=O)[C@H](CC(C)C)NC(=O)[C@@H](C)N(C)C(=O)[C@H]2CCCN2C(=O)[C@@H](CC(C)C)NC(=O)[C@@H](C(C)C)NC(=O)[C@H](CC(C)C)NC(=O)[C@@H](C)NC(=O)[C@@H](Cc2ccccc2)NC(=O)[C@H]2CCCN2C1=O [Design D12.2] (cyclo(I[dP][dF][dA]L[dV][dL][dP][dNMeA]L[dNMeL][dP]))"
  result: "BQL"
